- targetEntity: P-gp (Homo sapiens, UniProt P08183)
- Sequence (P08183 whole entry): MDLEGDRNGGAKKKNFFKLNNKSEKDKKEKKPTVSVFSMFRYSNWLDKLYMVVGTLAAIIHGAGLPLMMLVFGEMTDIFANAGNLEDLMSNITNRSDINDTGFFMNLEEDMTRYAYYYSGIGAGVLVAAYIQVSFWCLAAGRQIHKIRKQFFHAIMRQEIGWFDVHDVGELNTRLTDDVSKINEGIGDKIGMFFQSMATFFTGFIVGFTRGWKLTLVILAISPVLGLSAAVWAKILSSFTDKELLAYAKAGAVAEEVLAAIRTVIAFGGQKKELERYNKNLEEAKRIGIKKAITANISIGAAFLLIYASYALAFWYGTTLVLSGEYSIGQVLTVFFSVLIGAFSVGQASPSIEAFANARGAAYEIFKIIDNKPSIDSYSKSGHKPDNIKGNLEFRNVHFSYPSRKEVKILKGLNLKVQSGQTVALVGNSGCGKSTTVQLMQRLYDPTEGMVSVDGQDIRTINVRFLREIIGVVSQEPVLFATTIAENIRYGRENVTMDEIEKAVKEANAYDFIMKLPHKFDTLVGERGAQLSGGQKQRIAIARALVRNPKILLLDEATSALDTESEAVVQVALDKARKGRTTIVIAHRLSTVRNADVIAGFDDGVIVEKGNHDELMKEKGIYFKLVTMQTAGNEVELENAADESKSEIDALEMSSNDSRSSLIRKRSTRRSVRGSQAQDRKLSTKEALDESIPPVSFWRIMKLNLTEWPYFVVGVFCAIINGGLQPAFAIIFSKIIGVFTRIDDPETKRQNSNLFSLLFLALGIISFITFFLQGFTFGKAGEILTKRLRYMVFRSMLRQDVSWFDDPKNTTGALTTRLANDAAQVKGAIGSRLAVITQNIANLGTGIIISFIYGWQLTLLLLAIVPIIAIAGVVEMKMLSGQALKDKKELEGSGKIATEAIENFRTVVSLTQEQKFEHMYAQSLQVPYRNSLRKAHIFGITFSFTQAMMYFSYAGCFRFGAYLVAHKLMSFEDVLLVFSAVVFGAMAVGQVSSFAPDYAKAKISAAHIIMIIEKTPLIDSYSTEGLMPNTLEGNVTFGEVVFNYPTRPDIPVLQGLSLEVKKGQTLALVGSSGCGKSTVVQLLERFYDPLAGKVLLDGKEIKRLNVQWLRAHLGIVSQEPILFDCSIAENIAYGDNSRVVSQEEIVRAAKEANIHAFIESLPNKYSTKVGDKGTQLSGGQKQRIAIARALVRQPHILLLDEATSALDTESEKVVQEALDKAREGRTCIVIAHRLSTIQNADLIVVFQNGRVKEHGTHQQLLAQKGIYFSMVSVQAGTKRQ
- conditionParameters: 1 h, 0.62 µM
quantity: FIR Lucena 1

compound: COc1cc2cc(COc3nccc(-c4ccc(Cl)cc4)n3)c(=O)[nH]c2cc1OC
FIR Lucena 1: 1.02

compound: COc1cc2cc(CNc3ccc(Nc4nccc(-c5ccc6ccccc6c5)n4)cc3)c(=O)[nH]c2cc1OC
FIR Lucena 1: 1.29

compound: COc1cc2cc(CN3CCN(c4nccc(-c5ccc(Cl)cc5)n4)CC3)c(=O)[nH]c2cc1OC
FIR Lucena 1: 1.11

compound: COc1cc2cc(CN3CCN(c4nccc(-c5ccc6ccccc6c5)n4)CC3)c(=O)[nH]c2cc1OC
FIR Lucena 1: 1.22

compound: NCCN1CCN(c2nccc(-c3ccc4ccccc4c3)n2)CC1 [Compound 10a]
FIR Lucena 1: 1.04

compound: COc1ccc2[nH]c(=O)c(CNc3ccc(Nc4nccc(-c5ccc6ccccc6c5)n4)cc3)cc2c1
FIR Lucena 1: 1.16

compound: O=c1[nH]c2ccccc2cc1CN1CCN(c2nccc(-c3ccc4ccccc4c3)n2)CC1
FIR Lucena 1: 0.95

compound: COc1ccc2[nH]c(=O)c(CN3CCN(c4nccc(-c5ccc6ccccc6c5)n4)CC3)cc2c1
FIR Lucena 1: 1.21

compound: COc1cc2cc(CNc3ccc(Nc4nccc(-c5ccc(Cl)cc5)n4)cc3)c(=O)[nH]c2cc1OC
FIR Lucena 1: 1.11

compound: NCCN1CCN(c2nccc(-c3ccc(Cl)cc3)n2)CC1
FIR Lucena 1: 1.06

---

- protocolSummary: MTT cytotoxicity assay in Lucena 1
- Type: cell-based
- conditionParameters: human, Lucena 1 cells, read-out: IC50 (cytotoxicity) against Lucena 1
# IC50 at 48 h per entry
Give the quantity in µM, number only.

# example entries with known answers
molecule: COc1cccc2c1C(=O)c1c(O)c3c(c(O)c1C2=O)C[C@@](O)(C(=O)CO)C[C@@H]3O[C@H]1C[C@H](N)[C@H](O)[C@H](C)O1 [doxorubicin, reference compound]
unitsOfMeasure: µM
IC50 at 48 h: 23

molecule: NCCN1CCN(c2nccc(-c3ccc4ccccc4c3)n2)CC1 [Compound 10a]
unitsOfMeasure: µM
IC50 at 48 h: 17.1

molecule: COc1cc2cc(COc3nccc(-c4ccc(Cl)cc4)n3)c(=O)[nH]c2cc1OC
unitsOfMeasure: µM
IC50 at 48 h: 10.7

molecule: c1ccc2cc(-c3ccnc(N4CCNCC4)n3)ccc2c1
unitsOfMeasure: µM
IC50 at 48 h: 17.9

Moving on to another molecule below.
Task: For the molecule shown here, `COc1cc2cc(CN3CCN(c4nccc(-c5ccc6ccccc6c5)n4)CC3)c(=O)[nH]c2cc1OC` , give the reported IC50 at 48 h.
Output: 10.2

---

- targetEntity: P-gp (Homo sapiens)
- conditionParameters: 1 h, 2.5 µM
quantity: FIR Lucena 1

compound: O=c1[nH]c2ccccc2cc1CNc1ccc(Nc2nccc(-c3ccc4ccccc4c3)n2)cc1
targetEntity: P-gp (Homo sapiens)
FIR Lucena 1: 1.05

compound: O=c1[nH]c2ccccc2cc1CN1CCN(c2nccc(-c3ccc(Cl)cc3)n2)CC1
targetEntity: P-gp (Homo sapiens)
FIR Lucena 1: 1.06

compound: O=c1[nH]c2ccccc2cc1CN1CCN(c2nccc(-c3ccc4ccccc4c3)n2)CC1
targetEntity: P-gp (Homo sapiens)
FIR Lucena 1: 1.28

compound: COc1ccc2[nH]c(=O)c(CNc3ccc(Nc4nccc(-c5ccc(Cl)cc5)n4)cc3)cc2c1
targetEntity: P-gp (Homo sapiens)
FIR Lucena 1: 1.20

compound: NCCN1CCN(c2nccc(-c3ccc4ccccc4c3)n2)CC1 [Compound 10a]
targetEntity: P-gp (Homo sapiens)
FIR Lucena 1: 1.21

compound: NCCN1CCN(c2nccc(-c3ccc(Cl)cc3)n2)CC1
targetEntity: P-gp (Homo sapiens)
FIR Lucena 1: 1.26

compound: COc1cc2cc(CNc3ccc(Nc4nccc(-c5ccc(Cl)cc5)n4)cc3)c(=O)[nH]c2cc1OC
targetEntity: P-gp (Homo sapiens)
FIR Lucena 1: 1.31

compound: COc1cc2cc(CNc3ccc(Nc4nccc(-c5ccc6ccccc6c5)n4)cc3)c(=O)[nH]c2cc1OC
targetEntity: P-gp (Homo sapiens)
FIR Lucena 1: 1.26

compound: COc1cc2cc(CN3CCN(c4nccc(-c5ccc6ccccc6c5)n4)CC3)c(=O)[nH]c2cc1OC
targetEntity: P-gp (Homo sapiens)
FIR Lucena 1: 1.23

compound: COc1ccc2[nH]c(=O)c(CN3CCN(c4nccc(-c5ccc6ccccc6c5)n4)CC3)cc2c1
targetEntity: P-gp (Homo sapiens)
FIR Lucena 1: 1.26

compound: COc1cc2cc(COc3nccc(-c4ccc(Cl)cc4)n3)c(=O)[nH]c2cc1OC
targetEntity: P-gp (Homo sapiens)
FIR Lucena 1: 1.23

compound: COc1cc2cc(CN3CCN(c4nccc(-c5ccc(Cl)cc5)n4)CC3)c(=O)[nH]c2cc1OC
targetEntity: P-gp (Homo sapiens)
FIR Lucena 1: 1.32

compound: COc1ccc2[nH]c(=O)c(CN3CCN(c4nccc(-c5ccc(Cl)cc5)n4)CC3)cc2c1
targetEntity: P-gp (Homo sapiens)
FIR Lucena 1: 1.15

compound: c1ccc2cc(-c3ccnc(N4CCNCC4)n3)ccc2c1
targetEntity: P-gp (Homo sapiens)
FIR Lucena 1: 1.07

compound: COc1ccc2[nH]c(=O)c(CNc3ccc(Nc4nccc(-c5ccc6ccccc6c5)n4)cc3)cc2c1
targetEntity: P-gp (Homo sapiens)
FIR Lucena 1: 1.29

compound: Clc1ccc(-c2ccnc(N3CCNCC3)n2)cc1
targetEntity: P-gp (Homo sapiens)
FIR Lucena 1: 1.18

---

- Test system: K562 cells
- protocolSummary: Doxorubicin intracellular accumulation assay (flow cytometry) in K562
- Assay type: cell-based
- Set-up: key: MFI with inhibitor / MFI of Dox alone
- conditionParameters: compound 20 µM; 5 μM Dox
# FIR K562 per entry
The response must contain the number and no unit.

compound: COc1cc2cc(CN3CCN(c4nccc(-c5ccc(Cl)cc5)n4)CC3)c(=O)[nH]c2cc1OC
targetEntity: K562 cells
FIR K562: 0.79

Task: For the compound shown here, `Clc1ccc(-c2ccnc(N3CCNCC3)n2)cc1` , give the reported FIR K562.
Output: 1.20

Task: For the compound shown here, `COc1ccc2[nH]c(=O)c(CN3CCN(c4nccc(-c5ccc6ccccc6c5)n4)CC3)cc2c1` , give the reported FIR K562.
Output: 0.88

Task: For the compound shown here, `COc1cc2cc(CNc3ccc(Nc4nccc(-c5ccc6ccccc6c5)n4)cc3)c(=O)[nH]c2cc1OC` , give the reported FIR K562.
Output: 0.95

---

- targetEntity: P-gp (Homo sapiens)
- conditionParameters: 1 h
quantity: minimum effective concentration (MEC), Dox accumulation (µM)

# example entries with known answers
compound: COc1cc2cc(CNc3ccc(Nc4nccc(-c5ccc6ccccc6c5)n4)cc3)c(=O)[nH]c2cc1OC
reading: 0.31

compound: O=c1[nH]c2ccccc2cc1CNc1ccc(Nc2nccc(-c3ccc(Cl)cc3)n2)cc1
reading: 20

compound: O=c1[nH]c2ccccc2cc1CN1CCN(c2nccc(-c3ccc4ccccc4c3)n2)CC1
reading: 1.25

compound: NCCN1CCN(c2nccc(-c3ccc4ccccc4c3)n2)CC1 [Compound 10a]
reading: 1.25

compound: COc1cc2cc(COc3nccc(-c4ccc(Cl)cc4)n3)c(=O)[nH]c2cc1OC
reading: 1.25

compound: COc1ccc2[nH]c(=O)c(CN3CCN(c4nccc(-c5ccc(Cl)cc5)n4)CC3)cc2c1
reading: 2.5

compound: COc1ccc2[nH]c(=O)c(CN3CCN(c4nccc(-c5ccc6ccccc6c5)n4)CC3)cc2c1
reading: 0.31

compound: COc1cc2cc(CNc3ccc(Nc4nccc(-c5ccc(Cl)cc5)n4)cc3)c(=O)[nH]c2cc1OC
reading: 0.62

compound: O=c1[nH]c2ccccc2cc1CN1CCN(c2nccc(-c3ccc(Cl)cc3)n2)CC1
reading: 5

compound: O=c1[nH]c2ccccc2cc1CNc1ccc(Nc2nccc(-c3ccc4ccccc4c3)n2)cc1
reading: 2.50

[1] NCCN1CCN(c2nccc(-c3ccc(Cl)cc3)n2)CC1
[2] COc1cc2cc(CN3CCN(c4nccc(-c5ccc6ccccc6c5)n4)CC3)c(=O)[nH]c2cc1OC
Task: Which entry shows the lesser value of minimum effective concentration (MEC), Dox accumulation here, 1 or 2 ? Let me know the label of the one you choose.
Output: 2
(2: 0.62 µM, 1: 1.25 µM)

---

- targetEntity: P-gp (Homo sapiens, UniProt P08183)
- conditionParameters: 1 h, 20 µM
quantity: FIR Lucena 1

# example entries with known answers
compound: COc1cc2cc(CN3CCN(c4nccc(-c5ccc(Cl)cc5)n4)CC3)c(=O)[nH]c2cc1OC
reading: 1.68

compound: COc1cc2cc(COc3nccc(-c4ccc(Cl)cc4)n3)c(=O)[nH]c2cc1OC
reading: 2.87

compound: Clc1ccc(-c2ccnc(N3CCNCC3)n2)cc1
reading: 1.65

compound: COc1cc2cc(CN3CCN(c4nccc(-c5ccc6ccccc6c5)n4)CC3)c(=O)[nH]c2cc1OC
reading: 1.45

[a] COc1cc2cc(CNc3ccc(Nc4nccc(-c5ccc6ccccc6c5)n4)cc3)c(=O)[nH]c2cc1OC
[b] c1ccc2cc(-c3ccnc(N4CCNCC4)n3)ccc2c1
Task: Which entry shows the lesser value of FIR Lucena 1 here, a or b ? Let me know the label of the one you choose.
Output: a
(a: 1.42, b: 2.23)

[P] COc1cc2cc(CNc3ccc(Nc4nccc(-c5ccc(Cl)cc5)n4)cc3)c(=O)[nH]c2cc1OC
[Q] NCCN1CCN(c2nccc(-c3ccc4ccccc4c3)n2)CC1 [Compound 10a]
Task: Would you let me know which has the greater FIR Lucena 1 value, P or Q ? Let me know the label of the one you choose.
Output: Q
(Q: 2.36, P: 1.39)
